System: HOP-62 NSCLC
METHOD DESCRIPTION: NCI tumour cell line growth inhibition, 48 h
Threshold check on TGI: at or above 8 µM gives 1, strictly below gives -1.

Below are worked cases with known answers.
COMPOUND | CATEGORY
Cn1c2ccc([N+](=O)[O-])cc2c(=O)n1Cc1ccccc1F | 1
CC(=O)Oc1c(C)c2c(c3ncccc13)OC(C)C2 (configuration not stated) | 1
O=c1cc(-c2cccc(O)c2)[nH]c2cc3c(cc12)OCO3 | 1
CN(C)CCNc1ccc([N+](=O)[O-])c2sc3ccccc3c(=O)c12 | 1
CC1=CC(=O)[C@@H](O)[C@]2(C)[C@H]3[C@@]4(O)OC[C@]35[C@H]([C@@H](C)[C@H]4O)[C@@H](OC(=O)C(C)(C)CO)C(=O)O[C@@H]5C[C@@H]12 | -1

Say whether COc1ccc(-c2cc(=O)c3ccc(O)cc3o2)c(OC)c1OC shows TGI of 8 µM or more. 1

Evaluate CN(C)CCCNC1=C(Cl)C(=O)c2ccccc2C1=O : TGI at minimum 8 µM? 1

Quick check: does Cc1ccc(Nc2nc(=O)c3c4ccccc4n(C(=O)OC(C)(C)C)c3s2)cc1 have TGI greater than or equal to 8 µM? 1

Determine whether measured TGI meets or exceeds 8 µM for COc1ccc(N2CN3OC(=O)N(c4ccc(OC)cc4)[C@@]3(c3ccccc3)C2)cc1 1

Assess whether reported TGI for CCOC(=O)c1ncn2c1[nH]c(=S)c1ccccc12 sits at 8 µM or higher. 1

Confirm if TGI reported for the compound Nc1cc2nc3ccccc3sc-2cc1=O is 8 µM or above. -1

###

Test system: OVCAR-5 ovarian
METHOD DESCRIPTION: NCI tumour cell line growth inhibition, 48 h
PROPERTY NAME: GI50

MOLECULE | GI50
COc1cc2nc(-c3ccc(C(F)(F)F)cc3)cc(OCCCN3CCC(O)CC3)c2cc1OC | 3.14 µM
O=C(CN1CCN(c2cc3c(cc2F)c(=O)c(C(=O)N/N=C/c2ccccc2O)cn3C2CC2)CC1)N/N=C\c1ccccc1O | 1.62 µM
Nc1cc2nc3ccccc3sc-2cc1=O | 1.93 µM
CC(C)c1ccc(C(C)C(=O)N(CC2=C(C(C)c3ccccn3)c3ccccc3C2)C(C)C)cc1 (stereo not given) | 5.33 µM

As a next step, examine the molecule that follows.
Report GI50 for CCCCCCCCSC1=CC(=O)c2nc3ccccc3c3ccnc1c23 please. > 100 µM

###

Tested on: LOX IMVI melanoma
METHOD DESCRIPTION: NCI tumour cell line growth inhibition, 48 h
PROPERTY NAME: TGI

// below: answered molecules
MOLECULE | PROPERTY NAME | REPORTED
COc1ccccc1CCN1CCN(CCCc2ccccc2)CC1 | TGI | > 100 µM
CC(=O)c1cccc(Nc2nc3ccccc3c3occc23)c1 | TGI | > 100 µM

Look up TGI for this molecule: COc1cccc(NC(=O)CC(=O)n2nc(C)c(N=Nc3ccccc3)c2C)c1 > 100 µM

Field request: TGI | item: COc1ccc(-c2cc(-c3ccc(Nc4nc(Nc5ccccc5)nc(Nc5ccc(Cl)cc5)n4)cc3)nc(N)c2C#N)cc1 1.58 µM

Look at this molecule and give its reported TGI. Cc1c(-c2ccc(O)cc2)n(CCCCCCNCCOC(=O)NCCCc2ccc(N(CCCl)CCCl)cc2)c2ccc(O)cc12 2.97 µM

Give the measured TGI of Nc1ccccc1-c1noc(=O)[nH]1 . > 100 µM
